This collection of values is drawn from the supplement of paper PMC10567573.

Measured protein stability index of individual entries
B1: SETD8 (parent)
chain: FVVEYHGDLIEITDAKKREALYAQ

Variants of: B1
Measurement protocol: protein stability index of a GFP-peptide fusion (GPS, HEK-293T) (PSI 1-6); higher = more stable;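 further: lentivirally expressed fusions sorted by FACS into six bins by GFP to DsRed ratio, PSI derived from sequencing read proportions per bin multiplied by bin number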
Setup conditions: c terminus: a fixed tail appended
Returns: the value as a bare number; no unit string appended.

{"Mutant name": "K17Y", "protein stability index": 1.34}
{"Mutant name": "T13G", "protein stability index": 1.41}
{"Mutant name": "G7E", "protein stability index": 2.33}
{"Mutant name": "Q24M", "protein stability index": 1.75}

Now for another entry.
Find the recorded protein stability index belonging to Y22L and report it.
1.47
